assay info: in vivo
setup conditions: female, BALB/c nu/nu, mouse, tumour and spleen, iv, total radioactivity
Where a SMILES comes first, the peptide text is derived from it. [ ]: non-standard residue; d: D form. Tyr(3-I) = N[C@@H](Cc1ccc(O)c(I)c1)C(=O)O; Sta = CC(C)C[C@H](N)[C@@H](O)CC(=O)O; AEEA = NCCOCCOCC(=O)O
quantity name: tissue to tissue ratio at 0.5 h

{"compound": "CC(C)C[C@H](NC(=O)C[C@H](O)[C@H](CC(C)C)NC(=O)[C@H](Cc1c[nH]cn1)NC(=O)CNC(=O)[C@@H](NC(=O)[C@H](C)NC(=O)[C@H](Cc1c[nH]c2ccccc12)NC(=O)[C@H](CCC(N)=O)NC(=O)[C@@H](Cc1ccccc1)NC(=O)COCCOCCNC(=O)[C@@H](N)Cc1ccc(O)c(I)c1)C(C)C)C(N)=O [[^125I]I-Tyr-PEG2-RM26] (H-[Tyr(3-I)][AEEA][dF]QWAVGH[Sta]L-NH2)", "result": 1.3}

* * *

assay info: in vivo
setup conditions: female, BALB/c nu/nu, mouse, tumour and bone, iv, total radioactivity
Where a SMILES comes first, the peptide text is derived from it. [ ]: non-standard residue; d: D form. Tyr(3-I) = N[C@@H](Cc1ccc(O)c(I)c1)C(=O)O; Sta = CC(C)C[C@H](N)[C@@H](O)CC(=O)O; AEEA = NCCOCCOCC(=O)O

{"compound": "CC(C)C[C@H](NC(=O)C[C@H](O)[C@H](CC(C)C)NC(=O)[C@H](Cc1c[nH]cn1)NC(=O)CNC(=O)[C@@H](NC(=O)[C@H](C)NC(=O)[C@H](Cc1c[nH]c2ccccc12)NC(=O)[C@H](CCC(N)=O)NC(=O)[C@@H](Cc1ccccc1)NC(=O)COCCOCCNC(=O)[C@@H](N)Cc1ccc(O)c(I)c1)C(C)C)C(N)=O [[^125I]I-Tyr-PEG2-RM26] (H-[Tyr(3-I)][AEEA][dF]QWAVGH[Sta]L-NH2)", "tissue to tissue ratio at 0.5 h": 1.9}

* * *

assay info: in vivo
setup conditions: mouse, stomach, iv, 40 pmol, Uptake, stomach, 0.5 h after injection; 40 pmol i.v.
Where a SMILES comes first, the peptide text is derived from it. [ ]: non-standard residue; d: D form. Tyr(3-I) = N[C@@H](Cc1ccc(O)c(I)c1)C(=O)O; Sta = CC(C)C[C@H](N)[C@@H](O)CC(=O)O; AEEA = NCCOCCOCC(=O)O

{"compound": "CC(C)C[C@H](NC(=O)C[C@H](O)[C@H](CC(C)C)NC(=O)[C@H](Cc1c[nH]cn1)NC(=O)CNC(=O)[C@@H](NC(=O)[C@H](C)NC(=O)[C@H](Cc1c[nH]c2ccccc12)NC(=O)[C@H](CCC(N)=O)NC(=O)[C@@H](Cc1ccccc1)NC(=O)COCCOCCNC(=O)CN1CCN(CC(=O)O)CCN(CC(=O)O)CCN(CC(=O)O)CC1)C(C)C)C(N)=O [[^111In]In-DOTA-PEG2-RM26, metal not drawn, reference compound]", "tissue uptake at 0.5 h [%ID/g]": 2.9}
{"compound": "CC(C)C[C@H](NC(=O)C[C@H](O)[C@H](CC(C)C)NC(=O)[C@H](Cc1c[nH]cn1)NC(=O)CNC(=O)[C@@H](NC(=O)[C@H](C)NC(=O)[C@H](Cc1c[nH]c2ccccc12)NC(=O)[C@H](CCC(N)=O)NC(=O)[C@@H](Cc1ccccc1)NC(=O)COCCOCCNC(=O)[C@@H](N)Cc1ccc(O)c(I)c1)C(C)C)C(N)=O [[^125I]I-Tyr-PEG2-RM26] (H-[Tyr(3-I)][AEEA][dF]QWAVGH[Sta]L-NH2)", "tissue uptake at 0.5 h [%ID/g]": 13.2}

* * *

assay info: in vivo
setup conditions: mouse, liver, iv, 40 pmol, Uptake, liver, 24 h after injection; 40 pmol i.v.
Where a SMILES comes first, the peptide text is derived from it. [ ]: non-standard residue; d: D form. Tyr(3-I) = N[C@@H](Cc1ccc(O)c(I)c1)C(=O)O; Sta = CC(C)C[C@H](N)[C@@H](O)CC(=O)O; AEEA = NCCOCCOCC(=O)O
# tissue uptake at 24 h values compiled below
quantity name: tissue uptake at 24 h (%ID/g)

{"compound": "CC(C)C[C@H](NC(=O)C[C@H](O)[C@H](CC(C)C)NC(=O)[C@H](Cc1c[nH]cn1)NC(=O)CNC(=O)[C@@H](NC(=O)[C@H](C)NC(=O)[C@H](Cc1c[nH]c2ccccc12)NC(=O)[C@H](CCC(N)=O)NC(=O)[C@@H](Cc1ccccc1)NC(=O)COCCOCCNC(=O)CN1CCN(CC(=O)O)CCN(CC(=O)O)CCN(CC(=O)O)CC1)C(C)C)C(N)=O [[^111In]In-DOTA-PEG2-RM26, metal not drawn, reference compound]", "unit info": "%ID/g", "quantitative result": 0.1}
{"compound": "CC(C)C[C@H](NC(=O)C[C@H](O)[C@H](CC(C)C)NC(=O)[C@H](Cc1c[nH]cn1)NC(=O)CNC(=O)[C@@H](NC(=O)[C@H](C)NC(=O)[C@H](Cc1c[nH]c2ccccc12)NC(=O)[C@H](CCC(N)=O)NC(=O)[C@@H](Cc1ccccc1)NC(=O)COCCOCCNC(=O)[C@@H](N)Cc1ccc(O)c(I)c1)C(C)C)C(N)=O [[^125I]I-Tyr-PEG2-RM26] (H-[Tyr(3-I)][AEEA][dF]QWAVGH[Sta]L-NH2)", "unit info": "%ID/g", "quantitative result": 0.2}

* * *

assay info: in vivo
setup conditions: female, BALB/c nu/nu, mouse, tumour and small intestine, iv, total radioactivity
Where a SMILES comes first, the peptide text is derived from it. [ ]: non-standard residue; d: D form. Tyr(3-I) = N[C@@H](Cc1ccc(O)c(I)c1)C(=O)O; Sta = CC(C)C[C@H](N)[C@@H](O)CC(=O)O; AEEA = NCCOCCOCC(=O)O

{"compound": "CC(C)C[C@H](NC(=O)C[C@H](O)[C@H](CC(C)C)NC(=O)[C@H](Cc1c[nH]cn1)NC(=O)CNC(=O)[C@@H](NC(=O)[C@H](C)NC(=O)[C@H](Cc1c[nH]c2ccccc12)NC(=O)[C@H](CCC(N)=O)NC(=O)[C@@H](Cc1ccccc1)NC(=O)COCCOCCNC(=O)[C@@H](N)Cc1ccc(O)c(I)c1)C(C)C)C(N)=O [[^125I]I-Tyr-PEG2-RM26] (H-[Tyr(3-I)][AEEA][dF]QWAVGH[Sta]L-NH2)", "tissue to tissue ratio at 3 h": 1.3}

* * *

assay info: in vivo
setup conditions: female, BALB/c nu/nu, mouse, tumour and bone, iv, total radioactivity
Where a SMILES comes first, the peptide text is derived from it. [ ]: non-standard residue; d: D form. Tyr(3-I) = N[C@@H](Cc1ccc(O)c(I)c1)C(=O)O; Sta = CC(C)C[C@H](N)[C@@H](O)CC(=O)O; AEEA = NCCOCCOCC(=O)O

{"compound": "CC(C)C[C@H](NC(=O)C[C@H](O)[C@H](CC(C)C)NC(=O)[C@H](Cc1c[nH]cn1)NC(=O)CNC(=O)[C@@H](NC(=O)[C@H](C)NC(=O)[C@H](Cc1c[nH]c2ccccc12)NC(=O)[C@H](CCC(N)=O)NC(=O)[C@@H](Cc1ccccc1)NC(=O)COCCOCCNC(=O)[C@@H](N)Cc1ccc(O)c(I)c1)C(C)C)C(N)=O [[^125I]I-Tyr-PEG2-RM26] (H-[Tyr(3-I)][AEEA][dF]QWAVGH[Sta]L-NH2)", "tissue to tissue ratio at 3 h": 1.9}

* * *

assay info: in vivo
setup conditions: mouse, thyroid, iv, 40 pmol, Uptake, thyroid, 0.5 h after injection; 40 pmol i.v.
Where a SMILES comes first, the peptide text is derived from it. [ ]: non-standard residue; d: D form. Tyr(3-I) = N[C@@H](Cc1ccc(O)c(I)c1)C(=O)O; Sta = CC(C)C[C@H](N)[C@@H](O)CC(=O)O; AEEA = NCCOCCOCC(=O)O
Let's look at some compounds and their measured tissue uptake at 0.5 h.

{"compound": "CC(C)C[C@H](NC(=O)C[C@H](O)[C@H](CC(C)C)NC(=O)[C@H](Cc1c[nH]cn1)NC(=O)CNC(=O)[C@@H](NC(=O)[C@H](C)NC(=O)[C@H](Cc1c[nH]c2ccccc12)NC(=O)[C@H](CCC(N)=O)NC(=O)[C@@H](Cc1ccccc1)NC(=O)COCCOCCNC(=O)[C@@H](N)Cc1ccc(O)c(I)c1)C(C)C)C(N)=O [[^125I]I-Tyr-PEG2-RM26] (H-[Tyr(3-I)][AEEA][dF]QWAVGH[Sta]L-NH2)", "tissue uptake at 0.5 h / %ID/g": 8.2}
{"compound": "CC(C)C[C@H](NC(=O)C[C@H](O)[C@H](CC(C)C)NC(=O)[C@H](Cc1c[nH]cn1)NC(=O)CNC(=O)[C@@H](NC(=O)[C@H](C)NC(=O)[C@H](Cc1c[nH]c2ccccc12)NC(=O)[C@H](CCC(N)=O)NC(=O)[C@@H](Cc1ccccc1)NC(=O)COCCOCCNC(=O)CN1CCN(CC(=O)O)CCN(CC(=O)O)CCN(CC(=O)O)CC1)C(C)C)C(N)=O [[^111In]In-DOTA-PEG2-RM26, metal not drawn, reference compound]", "tissue uptake at 0.5 h / %ID/g": 1.1}
